// provenance: PubChem BioAssay (NCI)

System: K-562 leukemia
experimentalProtocol: NCI tumour cell line growth inhibition, 48 h
Kindly supply the reported TGI values for the records listed here.

What the record says about CN1CCc2c(sc3ncn(C)c(=N)c23)C1 : TGI is > 100 µM

What the record says about COc1ccc(-c2coc3c4c(ccc3c2=O)OCO4)cc1OC : TGI is > 100 µM

What the record says about CC(C)CC(NC(=O)C(CI)Cc1ccccc1)C(=O)Nc1ccccc1 (stereo not given) : TGI is > 100 µM

What the record says about COc1ccc2c(c1)C(=O)OCCC2 : TGI is > 100 µM

What the record says about Cc1nc(-[n+]2nc(-c3ccncc3)nn2-c2ccccc2)sc1C : TGI is > 100 µM

What the record says about COC(=O)[C@H](Cc1c[nH]c2ccccc12)NC(=O)c1ccc(CNC(=O)/C(C)=C/c2ccccc2)cc1 : TGI is > 100 µM

What the record says about CC(=O)Oc1ccc2c(c1)c1c(=O)oc(C)nc1n2Cc1ccccc1 : TGI is > 100 µM

What the record says about O=C1NC(=O)C(c2c[nH]c3ccccc23)=C1c1cn(C(c2ccccc2)(c2ccccc2)c2ccccc2)cn1 : TGI is 28.7 µM

What the record says about COc1ccc(NC(=O)N(C)CC2(O)CCC(C(C)(C)C)CC2)cc1 (stereo not given) : TGI is > 100 µM

What the record says about Cc1cccc(C)c1NC(=O)C(=O)C(C(=O)c1ccccc1-c1ccccc1)C1OC(=O)c2ccccc21 (stereo not given) : TGI is > 100 µM

What the record says about COC(=O)CC1C=CC(C)(OC)OO1 (stereo not given) : TGI is > 100 µM

What the record says about C=C(C(=O)O)[C@@H]1C[C@@H](OC(C)=O)[C@]2(C)CC/C=C(\C)CCC[C@H](C)[C@H](O)[C@@H]1O2 : TGI is > 100 µM

What the record says about COc1cc2c(c(OC)c1OC)-c1ncc3cc4c(cc3c1C2)OCO4 : TGI is > 100 µM

What the record says about COc1ccc(CCNC(=O)c2ccc(NC3=C(Cl)C(=O)N(Cc4ccccc4)C3=O)cc2)cc1OC : TGI is 5.21 µM

What the record says about O=C(c1ccccc1)c1c(-c2ccccc2)n(-c2ccccc2)[nH]c(=O)c1=O : TGI is 81.4 µM
